# Test system: SN12C renal
# Assay name: NCI tumour cell line growth inhibition, 48 h
Given measured TGI, output 1 if it is greater than or equal to 10 µM and 0 if not.

Does "COc1ccc(OC)c(CCc2cc(OC)ccc2OC)c1" have a reported TGI of at least 10 µM?
1

Then what about the compound "N=C(N)c1ccc(-c2ccc(-c3cccs3)o2)cc1" ?
0

Then what about the compound "Cc1ccc(/C(=C/C=C(/C#N)C(N)=O)Sc2ncnn2C)cc1" ?
1

Then what about the compound FC(F)(F)c1ccc(C2=N/S(c3ccccc3)=N\C(c3ccc(C(F)(F)F)cc3)=N/S(c3ccccc3)=N\2)cc1 (stereo not given) ?
1

Then what about the compound "Cc1cc(C)c(-n2c(-c3ccccc3)cs/c2=N\N=C2C=C(C(C)(C)C)C(=O)C(C(C)(C)C)=C2)c(C)c1" ?
1

Then what about the compound "Nc1nc(CCl)nc(N2CCOCC2)n1" ?
1

Then what about the compound "COc1ccc2[nH]c(Cl)c(/C=C3/C(=O)N(c4ccccc4)c4ccccc43)c2c1" ?
1

Then what about the compound "CN1CCN(Cc2ccc(NC(=O)c3cncc(C#Cc4cnc5ccc(Cl)nn45)c3)cc2C(F)(F)F)CC1" ?
0

Then what about the compound "COC(=O)CCC1=C(C)C(C)=N/C1=C\c1[nH]c(-c2ccc[nH]2)cc1OC" ?
1

Then what about the compound "Clc1ccc(-c2nc(-c3ccccc3)cn3ccnc23)cc1" ?
1

----------
# System: LOX IMVI melanoma
# Assay name: NCI tumour cell line growth inhibition, 48 h
Readout name: TGI

Item under review: CC1(C=O)C(=O)CCC2(C)C3CC(=O)OC3CCC12 (configuration not stated) . Reported TGI?
> 100 µM

Then what about the molecule "C/C(=N\NC(=O)c1ccccc1N)c1ccccc1O" ?
> 100 µM

Then what about the molecule "CN(C)C(=S)/N=c1\ss/c(=N\C(=S)N(C)C)n1C1CCCCC1" ?
> 100 µM

Then what about the molecule "CCCCC(=O)Nc1ccc2cc(C(=O)OC)c(Cl)nc2n1" ?
> 100 µM

Then what about the molecule "Cc1cc(C)c(-n2c(-c3ccccc3)cs/c2=N\N=C2C=C(C(C)(C)C)C(=O)C(C(C)(C)C)=C2)c(C)c1" ?
> 100 µM

Then what about the molecule "O=C(O)c1ccccc1NS(=O)(=O)c1ccc([N+](=O)[O-])cc1" ?
> 100 µM

Then what about the molecule "Clc1ccc(Cc2nc3cc(Cl)ccc3o2)cc1" ?
> 100 µM

----------
Kindly supply the reported TGI values for the records listed here.
# Tested on: CCRF-CEM leukemia
# Assay name: NCI tumour cell line growth inhibition, 48 h

Item under review: CC1C=CC(O)[C@]2(CO)CC3(CCC12)OCCO3 (stereo not given in full) . Reported TGI?
> 100 µM

Then what about the compound Nc1nc2c(ncn2C2C=CC(COS(N)(=O)=O)C2)c(=O)[nH]1 (stereo not given) ?
> 100 µM

Then what about the compound "CCN(CC)c1c(C)c(C(=O)OC)nn1-c1ccccc1" ?
> 100 µM

Then what about the compound "O=C(Cc1ccc(OCc2ccccc2)cc1)NCc1ccc2c(c1)OCO2" ?
> 100 µM

Then what about the compound "O=c1ccc2[n+]([O-])c3ccc(O)cc3oc-2c1" ?
> 73 µM

Then what about the compound "Oc1ccc(Cl)cc1-c1cc(-c2ccc(Cl)cc2)n[nH]1" ?
14.5 µM

Then what about the compound CC(=O)O[C@H](C[C@@H](C)[C@H]1C(=O)[C@H](O)[C@@]2(C)C3CC[C@H]4C(C)(C)[C@@H](OC5OCC(O)C(O)C5O)CC[C@@]45C[C@@]35CC[C@]12C)[C@@H]1OC1(C)C (stereo not given in full) ?
> 100 µM

Then what about the compound "COc1ccc2[nH]c(Cl)c(/C=C3/C(=O)N(c4ccccc4)c4ccccc43)c2c1" ?
63.4 µM

Then what about the compound C[C@@]1(O)C2C3CC4C5C3C1[C@](O)(C42)[C@H]5Br (stereo not given in full) ?
> 100 µM

Then what about the compound "C#CCN(Cc1ccc2nc(-c3ccccc3)c(Cl)nc2c1)c1cc(OC)c(OC)c(OC)c1" ?
> 100 µM

Then what about the compound Cc1cc2nn(C3CCCO3)nc2cc1C (stereo not given) ?
> 100 µM

Then what about the compound "CN1CCN(Cc2ccc(NC(=O)c3cncc(C#Cc4cnc5ccc(Cl)nn45)c3)cc2C(F)(F)F)CC1" ?
4.84 µM

Then what about the compound "S=c1nc(COc2ccc(Cl)cc2)[nH][nH]1" ?
> 100 µM

Then what about the compound "COc1c(Cl)nc2ccccc2c1N=[N+]=[N-]" ?
> 100 µM

Then what about the compound "O=C(O)CCC(=O)N1C/C(=C\c2ccccc2)C(=O)/C(=C/c2ccccc2)C1" ?
9.93 µM

Then what about the compound CC1CN=C(c2cccc(-c3ccc(-c4ccccc4)o3)c2)N1 (stereo not given) ?
6.78 µM

Then what about the compound "S=C1Cc2cc3ccccc3nc2-c2ccccc2N1" ?
> 100 µM

Then what about the compound Cc1cn(C2OC(CO)C(O)C2O)c(=O)[nH]c1=O (stereo not given) ?
> 1000 µM

Then what about the compound COC(=O)C1C(O)C(C)C(O)C(C)(O)/C=C/C=C(C)C(=O)Nc2c(C)c(OC(C)=O)c3c(c2O)C(=O)C(C)=C2OCOC(=C23)C(C)=CC(C)(O)C(O)C(C)C1OC(C)=O (stereo not given) ?
55.8 µM

Then what about the compound "[O-][n+]1c2cc3c(cc2[n+]([O-])c2c(O)cccc21)CN(CCN1CCOCC1)C3" ?
47 µM

----------
Kindly supply the reported TGI values for the records listed here.
# Test system: K-562 leukemia
# Assay name: NCI tumour cell line growth inhibition, 48 h

Item under review: "CCO/C(O)=C(/C(=N)N1CCOCC1)C(=O)Nc1cccc(Cl)c1" . Reported TGI?
> 100 µM

Then what about the compound "CC1(C)CC(/C=C2/OC(=O)c3ccccc32)=C(C(N)=O)C(=O)O1" ?
> 100 µM

Then what about the compound "COc1ccc(NC(=O)CC(=O)NN2C(=O)/C(=C/c3ccc(N(CCC#N)CCC#N)cc3C)N=C2/C=C\c2ccccc2)cc1" ?
> 100 µM

----------
# Test system: HCT-116 colon
# Assay name: NCI tumour cell line growth inhibition, 48 h; in the data active = GI50 below about 0.43 µM; inactive = the rest
Respond with a class label; see Yes (active), No (inactive)

Record lookup: outcome of this test for "CN1CCN(Cc2ccc(NC(=O)c3cncc(C#Cc4cnc5ccc(Cl)nn45)c3)cc2C(F)(F)F)CC1" ?
Yes

Then what about the compound "CC(C)CC(=O)[O-].N.N.N.N.N.[Co+3].[O-][Cl+3]([O-])([O-])[O-]" ?
No

Then what about the compound "CC(C)CNC(=O)c1ccc(NC(=O)N(CC(C)C)C(=O)c2ccc(N)c(OCCCN)c2)c(OCCCN=C(N)N)c1" ?
No

Then what about the compound "Oc1ccc(Cl)cc1-c1cc(-c2ccc(Cl)cc2)n[nH]1" ?
No

Then what about the compound "COc1ccc(-c2cn(-c3cccc(C(=O)/C=C/c4cc(OC)c(OC)c(OC)c4)c3)c(=O)[nH]2)cc1" ?
Yes

----------
# Tested on: ACHN renal
# Assay name: NCI tumour cell line growth inhibition, 48 h; in the data active = GI50 below about 0.43 µM; inactive = the rest
Respond with a class label; see active, inactive

Record lookup: outcome of this test for "Nc1cc2ccccc2c(O)c1O" ?
inactive

Then what about the molecule Cc1cc(-c2ccc(C3C(C#N)=C(N)Oc4c3c(=O)oc3ccccc43)cc2)cnc1F (stereo unspecified) ?
inactive

Then what about the molecule "CC(C)CC(=O)[O-].CC(C)CC(=O)[O-].N.N.N.N.[Co+3].[O-][Cl+3]([O-])([O-])O.[O-][Cl+3]([O-])([O-])[O-]" ?
inactive

Then what about the molecule "COc1cccc(-n2ncc3c(N/N=C/c4cccc(F)c4)ncnc32)c1" ?
inactive

Then what about the molecule "CN(C)c1ccc(N=Nc2ccc(Br)cn2)c(O)c1" ?
active

Then what about the molecule O=C1C=C2C(=CCOC2O)O1 (stereo unspecified) ?
inactive

Then what about the molecule "Nc1c(C(=O)c2cccc(-c3ccncc3)c2)cnn1-c1ccc(F)cc1" ?
inactive

Then what about the molecule "COC(=O)[C@]12CC[C@@H](C(=O)/C=C/c3cccnc3)[C@@H]1[C@H]1CC[C@@H]3[C@@]4(C)C/C(=C/c5cccnc5)C(=O)C(C)(C)[C@@H]4CC[C@@]3(C)[C@]1(C)CC2" ?
active

Then what about the molecule "Oc1cc(Cn2cnc3c(Cl)nc(Cl)nc32)ccc1C12CC3CC(CC(C3)C1)C2" ?
inactive

Then what about the molecule "C/C(=N\NC(=O)c1ccccc1N)c1ccccc1O" ?
inactive

Then what about the molecule "Clc1ccc(-c2nc(-c3ccccc3)cn3ccnc23)cc1" ?
inactive

----------
Kindly supply the reported TGI values for the records listed here.
# Test system: NCI-H522 lung
# Assay name: NCI tumour cell line growth inhibition, 48 h

Item under review: COc1nc(=O)n(C2CC(F)C(CO)O2)cc1C (stereo unspecified) . Reported TGI?
> 100 µM

Then what about the molecule CC(CO)(CO)N1C(=O)C2C3c4ccccc4C(c4ccccc43)C2C1=O (stereo unspecified) ?
> 100 µM

Then what about the molecule "NC(N)=NS(=O)(=O)c1ccc(NC(=O)c2cccc3c(Nc4ccc(S(=O)(=O)N=C(N)N)cc4)c4ccccc4nc23)cc1" ?
> 100 µM

Then what about the molecule "OC(Cc1ccc2ccccc2n1)(C(F)(F)F)C(F)(F)F" ?
> 10 µM

Then what about the molecule CC1C=CC(O)[C@]2(CO)CC3(CCC12)OCCO3 (stereo partly specified) ?
> 100 µM

Then what about the molecule "Cc1cccc(-c2cc(=O)c3cc(C)c(C)c(C(=O)O)c3o2)c1" ?
> 100 µM

Then what about the molecule "O=C(C1CC1)N1CC[C@@H](Cc2n[nH]c(=O)n2-c2ccc(-c3ccc4occc4c3)cc2)C1" ?
> 92 µM

Then what about the molecule O=C1CC2C=CC1C2CO (stereo unspecified) ?
> 100 µM

Then what about the molecule "O=C(Cc1ccc(OCc2ccccc2)cc1)NCc1ccc2c(c1)OCO2" ?
> 100 µM

Then what about the molecule "c1ccc([P+](c2ccccc2)(c2ccccc2)c2ccc([P+](c3ccccc3)(c3ccccc3)c3ccccc3)c3ccccc23)cc1" ?
> 100 µM

Then what about the molecule NC(CCCNCc1ccccc1)C(=O)O (stereo unspecified) ?
> 100 µM
